# measurementDescription: Cmax in Ugandan children patient with uncomplicated malaria administered twice daily for 3 days as 20/120 mg tablets containing artemether-lumefantrine combination
# Type: ADME, organism-based
# Parameters: dose 120 mg
# assayConditions: human, in vivo, oral
# reported Cmax; entries follow
experimentalReadout: Cmax (ng/mL)

* CO[C@H]1O[C@@H]2O[C@@]3(C)CC[C@H]4[C@H](C)CC[C@@H]([C@H]1C)[C@@]24OO3 | 34
* CCCCN(CCCC)CC(O)c1cc(Cl)cc2c1-c1ccc(Cl)cc1/C2=C/c1ccc(Cl)cc1 (configuration not stated) | 6760
